The reported measurements were obtained from ChEMBL document CHEMBL1156759.

- assayed target: Caspase-5 (Homo sapiens, UniProt P51878)
- Sequence (P51878 whole entry): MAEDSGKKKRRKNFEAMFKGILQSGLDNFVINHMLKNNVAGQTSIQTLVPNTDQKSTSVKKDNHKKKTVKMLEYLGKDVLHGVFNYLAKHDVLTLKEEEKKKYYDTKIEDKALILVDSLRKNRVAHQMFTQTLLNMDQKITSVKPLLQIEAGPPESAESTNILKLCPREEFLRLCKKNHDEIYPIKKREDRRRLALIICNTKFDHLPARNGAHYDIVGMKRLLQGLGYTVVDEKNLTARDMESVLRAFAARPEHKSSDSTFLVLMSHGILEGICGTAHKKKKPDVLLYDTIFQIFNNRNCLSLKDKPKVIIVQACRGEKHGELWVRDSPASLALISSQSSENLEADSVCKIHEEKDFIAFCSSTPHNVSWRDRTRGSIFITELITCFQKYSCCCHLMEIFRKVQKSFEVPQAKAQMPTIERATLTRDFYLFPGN
endpoint: IC50 (µM)
The figure you give is taken to be in µM; do not add the unit.

If you can, please state the reported IC50 value of "N#Cc1nc(Nc2cc(F)cc(F)c2)nc(NC2CCCC2)n1" . 13.5
